Molecular target: XIAP (Homo sapiens)
Construct: GST
Assay: Disruption of the Smac peptide-(XIAP)BIR3 protein-protein interaction (Tables 2 and 3)
Type: binding
Conditions: Series B compounds, Table 3; read-out: XIXP IC50
Recorded measurements of IC50, one per entry

compound	tgt	IC50
CN[C@@H](C)C(=O)N[C@H](C(=O)N1CCN(Cc2ccccc2)C[C@H]1C(=O)NC(Cc1ccccc1)Cc1ccccc1)C(C)C	XIAP (Homo sapiens)	< 10 µM
CN[C@@H](C)C(=O)N[C@H](C(=O)N1CCN(Cc2ccccc2)C[C@H]1C(=O)NCCc1cccc(F)c1)C(C)C	XIAP (Homo sapiens)	< 10 µM
CN[C@@H](C)C(=O)N[C@H](C(=O)N1CCN(Cc2ccccc2)C[C@H]1C(=O)NCc1cc(F)cc(F)c1)C(C)C	XIAP (Homo sapiens)	< 10 µM
CN[C@@H](C)C(=O)N[C@H](C(=O)N1CCN(Cc2ccccc2)C[C@H]1C(=O)NCc1ccco1)C(C)C	XIAP (Homo sapiens)	< 10 µM
CCN(C(=O)[C@@H]1CN(Cc2ccccc2)CCN1C(=O)[C@@H](NC(=O)[C@H](C)NC)C(C)C)C1CCCc2ccccc21 (stereo partly shown)	XIAP (Homo sapiens)	< 10 µM
CN[C@@H](C)C(=O)N[C@H](C(=O)N1CCN(Cc2ccccc2)C[C@H]1C(=O)NCc1nccs1)C(C)C	XIAP (Homo sapiens)	> 10 µM
CN[C@@H](C)C(=O)N[C@H](C(=O)N1CCN(Cc2ccccc2)C[C@H]1C(=O)NC1CCc2ccccc2C1)C(C)C (stereo partly shown) [Compound 68]	XIAP (Homo sapiens)	< 10 µM
CN[C@@H](C)C(=O)N[C@H](C(=O)N1CCN(Cc2ccccc2)C[C@H]1C(=O)NCCCc1ccccc1)C(C)C	XIAP (Homo sapiens)	> 10 µM
CN[C@@H](C)C(=O)N[C@H](C(=O)N1CCN(Cc2ccccc2)C[C@H]1C(=O)NCc1ccccc1)C(C)C	XIAP (Homo sapiens)	< 10 µM
CN[C@@H](C)C(=O)N[C@H](C(=O)N1CCN(Cc2ccccc2)C[C@H]1C(=O)NCCc1ccncc1)C(C)C	XIAP (Homo sapiens)	> 10 µM
CN[C@@H](C)C(=O)N[C@H](C(=O)N1CCN(Cc2ccccc2)C[C@H]1C(=O)NCCc1ccccc1)C(C)C	XIAP (Homo sapiens)	< 10 µM
CN[C@@H](C)C(=O)N[C@H](C(=O)N1CCN(Cc2ccccc2)C[C@H]1C(=O)NC1CCc2ccccc21)C(C)C (stereo partly shown)	XIAP (Homo sapiens)	< 10 µM
CN[C@@H](C)C(=O)N[C@H](C(=O)N1CCN(Cc2ccccc2)C[C@H]1C(=O)N1Cc2ccccc2C1)C(C)C	XIAP (Homo sapiens)	< 10 µM

====

Biological target: XIAP (Homo sapiens, UniProt P98170)
Construct: GST
Sequence (P98170 248-358 limits assumed, species assumed): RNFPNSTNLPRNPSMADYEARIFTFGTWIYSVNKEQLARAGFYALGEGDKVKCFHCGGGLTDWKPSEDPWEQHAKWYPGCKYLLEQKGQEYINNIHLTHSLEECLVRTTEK
Experiment: Disruption of the Smac peptide-(XIAP)BIR3 protein-protein interaction (Tables 2 and 3)
Type: binding
Settings: Series B compounds, Table 3; read-out: XIXP IC50
quantity: IC50

compound	tgt	quantity	value observed
CN[C@@H](C)C(=O)N[C@H](C(=O)N1CCN(Cc2ccccc2)C[C@H]1C(=O)NCCc1ccc(F)cc1)C(C)C [Compound 71]	XIAP (Homo sapiens, UniProt P98170)	IC50	< 10 µM
CN[C@@H](C)C(=O)N[C@H](C(=O)N1CCN(Cc2ccccc2)C[C@H]1C(=O)NCCc1cccnc1)C(C)C [Compound 66]	XIAP (Homo sapiens, UniProt P98170)	IC50	> 10 µM
CN[C@@H](C)C(=O)N[C@H](C(=O)N1CCN(Cc2ccccc2)C[C@H]1C(=O)NCc1ccc(F)cc1)C(C)C [Compound 70]	XIAP (Homo sapiens, UniProt P98170)	IC50	< 10 µM
CN[C@@H](C)C(=O)N[C@H](C(=O)N1CCN(Cc2ccccc2)C[C@H]1C(=O)NCC1CCCCCC1)C(C)C [Compound 77]	XIAP (Homo sapiens, UniProt P98170)	IC50	> 10 µM
CN[C@@H](C)C(=O)N[C@H](C(=O)N1CCN(Cc2ccccc2)C[C@H]1C(=O)NCCc1ccccc1F)C(C)C [Compound 67]	XIAP (Homo sapiens, UniProt P98170)	IC50	< 10 µM
CN[C@@H](C)C(=O)N[C@H](C(=O)N1CCN(Cc2ccccc2)C[C@H]1C(=O)NC1Cc2ccccc2C1)C(C)C [Compound 78]	XIAP (Homo sapiens, UniProt P98170)	IC50	< 10 µM
CN[C@@H](C)C(=O)N[C@H](C(=O)N1CCN(Cc2ccccc2)C[C@H]1C(=O)NCC1CCCC1)C(C)C [Compound 81]	XIAP (Homo sapiens, UniProt P98170)	IC50	< 10 µM
CN[C@@H](C)C(=O)N[C@H](C(=O)N1CCN(Cc2ccccc2)C[C@H]1C(=O)NC1CCc2ccccc2C1)C(C)C (some centres unmarked) [Compound 74]	XIAP (Homo sapiens, UniProt P98170)	IC50	< 10 µM
CN[C@@H](C)C(=O)N[C@H](C(=O)N1CCN(Cc2ccccc2)C[C@H]1C(=O)NCC1CCCCC1)C(C)C [Compound 79]	XIAP (Homo sapiens, UniProt P98170)	IC50	< 10 µM
CN[C@@H](C)C(=O)N[C@H](C(=O)N1CCN(Cc2ccccc2)C[C@H]1C(=O)N[C@H](C)c1ccccc1)C(C)C [Compound 87]	XIAP (Homo sapiens, UniProt P98170)	IC50	< 10 µM
CN[C@@H](C)C(=O)N[C@H](C(=O)N1CCN(Cc2ccccc2)C[C@H]1C(=O)N1CCc2ccccc2C1)C(C)C [Compound 86]	XIAP (Homo sapiens, UniProt P98170)	IC50	< 10 µM
CN[C@@H](C)C(=O)N[C@H](C(=O)N1CCN(Cc2ccccc2)C[C@H]1C(=O)NC(c1ccccc1)c1ccccc1)C(C)C [Compound 64]	XIAP (Homo sapiens, UniProt P98170)	IC50	< 10 µM
CN[C@@H](C)C(=O)N[C@H](C(=O)N1CCN(Cc2ccccc2)C[C@H]1C(=O)NC1c2ccccc2-c2ccccc21)C(C)C [Compound 75]	XIAP (Homo sapiens, UniProt P98170)	IC50	< 10 µM
CN[C@@H](C)C(=O)N[C@H](C(=O)N1CCN(Cc2ccccc2)C[C@H]1C(=O)NCCC(C)C)C(C)C [Compound 83]	XIAP (Homo sapiens, UniProt P98170)	IC50	> 10 µM

Data origin: patent US7932255B2
